Origin of the recorded values: BindingDB's records for patent US9617239

- system_name: Beta-glucuronidase (Escherichia coli (strain K12))
- Sequence (P05804 whole entry): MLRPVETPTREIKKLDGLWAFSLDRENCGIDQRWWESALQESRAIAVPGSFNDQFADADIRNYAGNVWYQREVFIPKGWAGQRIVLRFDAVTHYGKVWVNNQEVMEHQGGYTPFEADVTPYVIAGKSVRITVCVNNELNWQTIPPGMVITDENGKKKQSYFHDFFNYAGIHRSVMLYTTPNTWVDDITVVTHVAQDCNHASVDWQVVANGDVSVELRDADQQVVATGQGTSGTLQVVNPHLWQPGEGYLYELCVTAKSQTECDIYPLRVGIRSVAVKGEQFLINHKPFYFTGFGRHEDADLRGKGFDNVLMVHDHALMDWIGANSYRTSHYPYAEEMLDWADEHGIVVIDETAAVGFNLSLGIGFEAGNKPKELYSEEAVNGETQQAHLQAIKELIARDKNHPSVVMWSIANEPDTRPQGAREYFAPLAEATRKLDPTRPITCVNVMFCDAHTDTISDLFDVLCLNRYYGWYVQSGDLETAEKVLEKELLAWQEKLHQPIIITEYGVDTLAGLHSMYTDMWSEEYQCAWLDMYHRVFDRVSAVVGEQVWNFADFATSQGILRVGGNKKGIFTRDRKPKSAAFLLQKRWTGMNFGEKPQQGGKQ
- protocol_description: β-Glucuronidase Activity Assay

- smiles_entry: "O=S(=O)(NCc1cccc2ccccc12)c1cc(Cl)c(Oc2ccc3c(c2)OCO3)s1"
  system_name: "Beta-glucuronidase (Escherichia coli (strain K12))"
  display_unit: "µM"
  IC50: 376
